- test.protocol: Cytotoxicity against HEK293T cells assessed as reduction in cell viability after 24 hrs by CellTiter-Glo luminescent assay
- Assay type: cell-based, HEK-293T
- condition: human
experimental.endpoint: CC50 at 24 h

1) CCCNC(=O)[C@H]1CC[C@H](NC(=O)c2cc3sc(Br)cc3n2Cc2ccc(OC)cc2)CC1 = > 100 µM
2) CCCNC(=O)C1CCN(C(=O)c2cc3cc(Br)sc3n2Cc2ccc(OC)cc2)CC1 = > 100 µM
3) CCCNC(=O)[C@@H]1C[C@H]2CCC[C@@H](C1)[C@@H]2NC(=O)c1cc2scnc2n1Cc1ccc(OC)cc1 = > 25 µM
4) CCCNC(=O)C1CCN(C(=O)c2cc3sc(-c4ccccc4)cc3n2Cc2ccc(OC)cc2)CC1 = > 100 µM

Query string: Name the recorded CC50 at 24 h of the item CCCNC(=O)[C@@H]1C[C@H]2CCC[C@@H](C1)[C@H]2NC(=O)c1cc2sc(Br)cc2n1Cc1ccc(OC)cc1 in your answer.
Result string: > 100 µM

These data points were gathered from ChEMBL document CHEMBL4007509.
